Below are Ki values for Coagulation factor X (Homo sapiens) collected from several publications.
Note: every record was labeled by where its Ki sits among lower (below 8 nM), middle (8 nM to below 200 nM), upper (200 nM or more)

compound: N=C(N)c1ccc2ncn(CC(=O)c3ccc(-c4ccccc4)cc3)c2c1
qualitative.label: middle
--
compound: CCOC(=O)CC(CCc1ccc(C(=N)N)cc1)c1cccc(C(=N)N)c1 (stereo not given)
qualitative.label: middle
--
compound: Cc1c(F)c(Oc2cccc(C(=N)N)c2)nc(Oc2cccc(C(N)=O)c2)c1F
qualitative.label: upper
--
compound: CS(=O)(=O)c1ccccc1-c1ccc(N2CCCC(NS(=O)(=O)c3cc(Cl)cc(Cl)c3)C2=O)c(F)c1 (stereo not given)
qualitative.label: upper
--
compound: N=C(N)c1cccc(C(=O)N[C@H](Cc2ccccc2)C(=O)NCC2CCC(CN)CC2)c1 (stereo not given in full)
qualitative.label: upper
--
compound: N=C(N)c1cccc(C[C@H](NS(=O)(=O)c2cccc(NC(=O)CCN)c2)C(=O)N2CCN(c3ccc(O)cc3)CC2)c1
qualitative.label: upper
--
compound: CNC(=O)NCCC1CCN(C(=O)[C@H](Cc2cccc(C(=N)N)c2)NS(=O)(=O)c2cccc(NC(=O)CCN)c2)CC1
qualitative.label: upper
--
compound: CCOC(=O)CCC(=O)N(C/C=C/c1cccc(C(=N)N)c1)c1ccc(OC2CCN(C(C)=N)CC2)c(C(F)(F)F)c1
qualitative.label: lower
--
compound: COc1ccc(Oc2ccc(C(C)NC(=O)CNC(=O)Nc3ccc(C(=N)N)cc3)cc2)cc1 (stereo not given)
qualitative.label: upper
--
compound: COC(=O)CN(C1CCCN(c2ccc(-n3ccccc3=O)cc2)C1=O)S(=O)(=O)c1cc2ccc(Cl)nc2s1 (stereo not given)
qualitative.label: lower
--
compound: COc1ccc2ccc(S(=O)(=O)N(CC(=O)O)[C@H]3CCN(Cc4cccc(C(=N)N)c4)C3=O)cc2c1
qualitative.label: middle
--
compound: CNCc1ccccc1-c1ccc(N2CCc3c(C(F)(F)F)nn(-c4ccc5onc(N)c5c4)c3C2=O)cc1
qualitative.label: lower
--
compound: COc1ccc(NC2CCCN(c3ccc(-c4ccccc4S(C)(=O)=O)cc3F)C2=O)cc1 (stereo not given)
qualitative.label: upper
--
compound: N=C(N)N1CCC(Oc2ccc(C(Oc3ccc4c(c3)CN(C(=N)N)CC4)C(=O)O)cc2)CC1 (stereo not given)
qualitative.label: middle
--
compound: N=C(N)c1cccc(N2CCCCN(C3CCN(S(=O)(=O)Cc4ccccc4)CC3)C2=O)c1.O=C(O)C(F)(F)F
qualitative.label: middle
--
compound: N=C(N)c1ccc2[nH]cc(C(Cc3ccccc3)C(=O)Nc3ccc(-n4cnc5ccccc54)cc3F)c2c1 (racemic)
qualitative.label: lower
--
compound: N=C(N)c1cc2c(OC(C(=O)Nc3ccccc3)c3ccccc3)cccc2s1 (stereo not given)
qualitative.label: middle
--
compound: Cc1cc(C(=O)Nc2ccc(-c3ccccc3S(C)(=O)=O)cc2)n(-c2cccc(CN)c2)n1
qualitative.label: lower
--
compound: Cc1sc(C(=O)Nc2ccc(Cl)cc2C(=O)Nc2ccc(Cl)cc2)c(Cl)c1CN1CCN(C)CC1
qualitative.label: middle
--
compound: COc1ccsc1C(=O)Nc1ccc(C)cc1C(=O)Nc1ccc(Cl)cc1
qualitative.label: middle
--
compound: CCc1nc2cc(OC3CCN(C(C)=N)CC3)ccc2n1Cc1ccc(-c2cccc(C(=N)N)c2)cc1
qualitative.label: middle
--
compound: N=C(N)c1cccc(C[C@H](NS(=O)(=O)c2ccc3ccccc3c2)C(=O)N2CCN(C(=O)CO)CC2)c1
qualitative.label: upper
--
compound: Cc1cc(C(=O)Nc2ccc(-c3ccccc3)cc2)n(-c2cccc(C(=N)N)c2)n1
qualitative.label: lower
--
compound: N=C(N)c1ccc2c(c1)[C@@H](c1ccccc1)C[C@@H](c1cccc(-c3ccc(C(=O)O)cc3C(=O)O)c1)N2 (racemic)
qualitative.label: middle
--
compound: CN(C)Cc1ccccc1-c1ccc(N2CCCc3c(C(F)(F)F)nn(-c4ccc5onc(N)c5c4)c3C2=O)c(F)c1
qualitative.label: lower
--
compound: N=C(N)c1ccc(CNC(=O)[C@@H]2CCc3c(Cl)nc(NC4CCC4)c(=O)n32)cc1
qualitative.label: upper
--
compound: CCOc1cc(OC2CCN(C)CC2)cc(C(Nc2ccc(C(=N)N)cc2)C(=O)O)c1 (stereo not given)
qualitative.label: upper
--
compound: COc1ccc(-n2nc(C(F)(F)F)c3c2C(=O)N(c2ccc(C4(CNc5nccs5)CC4)cc2)CC3)cc1
qualitative.label: lower
--
compound: Nc1noc2ccc(-n3nc(C(F)(F)F)cc3C(=O)Cc3ccc(-c4ccccc4S(N)(=O)=O)cc3)cc12
qualitative.label: lower
--
compound: CC(C)(C)c1ccc(C(=O)NC/C=C/c2cc(C(=N)N)ccc2O)cc1
qualitative.label: middle
--
compound: CCOC(=O)CCC(=O)N(C/C=C/c1cc(C(=N)N)ccc1O)c1ccc(OC2CCN(C(C)=N)CC2)c(C(F)(F)F)c1
qualitative.label: lower
--
compound: CC(C)c1ccc(CCN(C)S(=O)(=O)c2cc(C(=N)N)ccc2O)cc1
qualitative.label: middle
--
compound: Cc1c(F)c(Oc2cccc(C(=N)N)c2)nc(N2CCN(C)CC2)c1F
qualitative.label: upper
